tested on: NCI-H1648 (Lung Adenocarcinoma); assay: combination Emax (second highest fraction inhibited in the dose matrix, 72 h); higher = more inhibition; extreme values may be limits of the assay
REPORTED PROPERTY: combination Emax
Output spec: single numeric token, no unit.

Could you please provide reported combination Emax for Cc1c2c(nn1C)CSCc1cc(n(C)n1)CSc1cc(c3ccccc3c1)OCCCc1c(C(=O)O)n(C)c3c-2c(Cl)ccc13 [AZD5991] + C1CN(CCC1(C(=O)N[C@@H](CCO)C2=CC=C(C=C2)Cl)N)C3=NC=NC4=C3C=CN4 [Capivasertib] (first compound max 1 µM, 7x7, partner max 3 µM) ? Thanks!
0.906

Field: next molecule
Could you please provide reported combination Emax for CC1(C)CCC(CN2CCN(c3ccc(C(=O)NS(=O)(=O)c4ccc(NCC5CCOCC5)c([N+](=O)[O-])c4)c(Oc4cnc5[nH]ccc5c4)c3)CC2)=C(c2ccc(Cl)cc2)C1 [Venetoclax] + C=CCn1c(=O)c2cnc(Nc3ccc(N4CCN(C)CC4)cc3)nc2n1-c1cccc(C(C)(C)O)n1 [AZD1775] (first compound max 1 µM, partner max 1 µM) ? Thanks!
0.595

====

tested on: HT-144 (Melanoma); assay: combination Emax (second highest fraction inhibited in the dose matrix, 72 h); higher = more inhibition; extreme values may be limits of the assay
REPORTED PROPERTY: combination Emax

As a guide, the following entries are already answered.
Could you please provide reported combination Emax for CC1(C)CCC(CN2CCN(c3ccc(C(=O)NS(=O)(=O)c4ccc(NCC5CCOCC5)c([N+](=O)[O-])c4)c(Oc4cnc5[nH]ccc5c4)c3)CC2)=C(c2ccc(Cl)cc2)C1 [Venetoclax] + C[C@@H]1COCCN1C2=NC(=NC(=C2)C3(CC3)[S@](=N)(=O)C)C4=C5C=CNC5=NC=C4 [AZD6738] (first compound max 1 µM, 7x7, partner max 10 µM) ? Thanks!
0.718

Could you please provide reported combination Emax for C=CCn1c(=O)c2cnc(Nc3ccc(N4CCN(C)CC4)cc3)nc2n1-c1cccc(C(C)(C)O)n1 [AZD1775] + C1CN(CCC1(C(=O)N[C@@H](CCO)C2=CC=C(C=C2)Cl)N)C3=NC=NC4=C3C=CN4 [Capivasertib] (first compound max 3 µM, partner max 3 µM) ? Thanks!
0.954

Could you please provide reported combination Emax for Cc1c2c(nn1C)CSCc1cc(n(C)n1)CSc1cc(c3ccccc3c1)OCCCc1c(C(=O)O)n(C)c3c-2c(Cl)ccc13 [AZD5991] + C[C@@H](Nc1cc(F)cc(F)c1)c1cc(C(=O)N(C)C)cc2c(=O)cc(N3CCOCC3)oc12 [AZD8186] (first compound max 1 µM, 7x7, partner max 3 µM) ? Thanks!
0.901

Could you please provide reported combination Emax for COc1nnc2ccc(N3CCC(c4ccc(OCCN5CCN(C)C(=O)[C@H]5C)cc4)CC3)nn12 [AZD5153] + C=CCn1c(=O)c2cnc(Nc3ccc(N4CCN(C)CC4)cc3)nc2n1-c1cccc(C(C)(C)O)n1 [AZD1775] (first compound max 1 µM, partner max 1 µM) ? Thanks!
0.651

Could you please provide reported combination Emax for Cc1c2c(nn1C)CSCc1cc(n(C)n1)CSc1cc(c3ccccc3c1)OCCCc1c(C(=O)O)n(C)c3c-2c(Cl)ccc13 [AZD5991] + C=CCn1c(=O)c2cnc(Nc3ccc(N4CCN(C)CC4)cc3)nc2n1-c1cccc(C(C)(C)O)n1 [AZD1775] (first compound max 1 µM, partner max 1 µM) ? Thanks!
0.969

Field: next compound
Could you please provide reported combination Emax for CN(CCO)CC[C@H](CSc1ccccc1)Nc1ccc(S(=O)(=O)NC(=O)c2ccc(N3CCC([C@@H](O)c4ccccc4-c4ccc(Cl)cc4)CC3)cc2)cc1S(=O)(=O)C(F)(F)F [AZD4320] + Cc1cc2ncnn2cc1Nc1ncc2c(n1)n(C1CCOCC1)c(=O)n2C [AZD7648] (first compound max 1 µM, 7x7, partner max 10 µM) ? Thanks!
0.193

====

Each entry below lists one item and its recorded Bliss excess value.
system: TK (B-Cell Non-Hodgkin's Lymphoma); experiment: Bliss excess, mean over the matrix (fraction); higher = more synergy
Output spec: single numeric token, no unit.

Please respond with reported Bliss excess (system TK (B-Cell Non-Hodgkin's Lymphoma)) for CC(=O)c1c(C)c2cnc(Nc3ccc(N4CCNCC4)cn3)nc2n(C2CCCC2)c1=O [Palbociclib] + CC1(C)CCC(CN2CCN(c3ccc(C(=O)NS(=O)(=O)c4ccc(NCC5CCOCC5)c([N+](=O)[O-])c4)c(Oc4cnc5[nH]ccc5c4)c3)CC2)=C(c2ccc(Cl)cc2)C1 [Venetoclax] (first compound max 10 µM, 7x7, partner max 1 µM) .
0.0332

Field: next molecule
Please respond with reported Bliss excess (system TK (B-Cell Non-Hodgkin's Lymphoma)) for NC1(C(=O)N[C@@H](CCO)c2ccc(Cl)cc2)CCN(c2ncnc3[nH]ccc23)CC1 [Capivasertib] + Cn1cnc2c(F)c(Nc3ccc(Br)cc3Cl)c(C(=O)NOCCO)cc21 [Selumetinib] (first compound max 10 µM, 7x7, partner max 10 µM) .
-0.0189

====

test system: SK-MEL-24 (Melanoma); test: Bliss excess, mean over the matrix (fraction); higher = more synergy
REPORTED PROPERTY: Bliss excess
Output spec: single numeric token, no unit.

Could you please provide reported Bliss excess for CN(CCO)CC[C@H](CSc1ccccc1)Nc1ccc(S(=O)(=O)NC(=O)c2ccc(N3CCC([C@@H](O)c4ccccc4-c4ccc(Cl)cc4)CC3)cc2)cc1S(=O)(=O)C(F)(F)F [AZD4320] + CC(=O)O[C@H]1C(=O)[C@@]2(C)[C@H]([C@H](OC(=O)c3ccccc3)[C@]3(O)C[C@H](OC(=O)[C@H](O)[C@@H](NC(=O)c4ccccc4)c4ccccc4)C(C)=C1C3(C)C)[C@]1(OC(C)=O)CO[C@@H]1C[C@@H]2O [Paclitaxel] (first compound max 1 µM, 7x7, partner max 3 µM) ? Thanks!
0.0574

====

tested on: NCI-H835 (Other Solid Carcinomas); assay: Bliss excess, mean over the matrix (fraction); higher = more synergy
Each entry below lists one item and its recorded Bliss excess value.
Output spec: single numeric token, no unit.

Could you please provide reported Bliss excess for COc1cccc(OCCCN)c1-c1cc(Nc2cnc(C#N)cn2)n[nH]1 [Prexasertib] + O=C(c1cc(Cc2n[nH]c(=O)c3ccccc23)ccc1F)N1CCN(C(=O)C2CC2)CC1 [Olaparib] (first compound max 1 µM, 7x7, partner max 10 µM) ? Thanks!
-0.045

New cases:
Could you please provide reported Bliss excess for N#Cc1cnc(Nc2cc(NC[C@H]3CNCCO3)c(C(F)(F)F)cn2)cn1 [SRA737] + O=c1[nH]cc(F)c(=O)[nH]1 [5-Fluorouracil] (first compound max 10 µM, 7x7, partner max 20 µM) ? Thanks!
0.0621

====

Each entry below lists one item and its recorded Bliss excess value.
system: SBC-5 (Small Cell Lung Carcinoma); assay: Bliss excess, mean over the matrix (fraction); higher = more synergy
Output spec: single numeric token, no unit.

Could you please provide reported Bliss excess for Cc1cc2ncnn2cc1Nc1ncc2c(n1)n(C1CCOCC1)c(=O)n2C [AZD7648] + C[C@@H]1COCCN1C2=NC(=NC(=C2)C3(CC3)[S@](=N)(=O)C)C4=C5C=CNC5=NC=C4 [AZD6738] (first compound max 10 µM, 7x7, partner max 10 µM) ? Thanks!
0.0284

Could you please provide reported Bliss excess for CC1(C)CCC(CN2CCN(c3ccc(C(=O)NS(=O)(=O)c4ccc(NCC5CCOCC5)c([N+](=O)[O-])c4)c(Oc4cnc5[nH]ccc5c4)c3)CC2)=C(c2ccc(Cl)cc2)C1 [Venetoclax] + Cn1cnc2c(F)c(Nc3ccc(Br)cc3Cl)c(C(=O)NOCCO)cc21 [Selumetinib] (first compound max 1 µM, 7x7, partner max 3 µM) ? Thanks!
-0.0096

Field: next compound
Could you please provide reported Bliss excess for CN(CCO)CC[C@H](CSc1ccccc1)Nc1ccc(S(=O)(=O)NC(=O)c2ccc(N3CCC([C@@H](O)c4ccccc4-c4ccc(Cl)cc4)CC3)cc2)cc1S(=O)(=O)C(F)(F)F [AZD4320] + Cn1cnc2c(F)c(Nc3ccc(Br)cc3Cl)c(C(=O)NOCCO)cc21 [Selumetinib] (first compound max 1 µM, 7x7, partner max 3 µM) ? Thanks!
0.0547

====

test system: HT-1197 (Bladder Carcinoma); assay: Bliss excess, mean over the matrix (fraction); higher = more synergy
REPORTED PROPERTY: Bliss excess
Output spec: single numeric token, no unit.

Could you please provide reported Bliss excess for CN(C)CCCOc1ccc(-c2ccc3ncc4c(c3c2)n(C2CCOCC2)c(=O)n4C)cn1 [AZD0156] + O=C(c1cc(Cc2n[nH]c(=O)c3ccccc23)ccc1F)N1CCN(C(=O)C2CC2)CC1 [Olaparib] (first compound max 3 µM, partner max 3 µM) ? Thanks!
-0.0404

Could you please provide reported Bliss excess for C=CCn1c(=O)c2cnc(Nc3ccc(N4CCN(C)CC4)cc3)nc2n1-c1cccc(C(C)(C)O)n1 [AZD1775] + O=C(c1cc(Cc2n[nH]c(=O)c3ccccc23)ccc1F)N1CCN(C(=O)C2CC2)CC1 [Olaparib] (first compound max 1 µM, partner max 10 µM) ? Thanks!
-0.0023

Could you please provide reported Bliss excess for Cc1c2c(nn1C)CSCc1cc(n(C)n1)CSc1cc(c3ccccc3c1)OCCCc1c(C(=O)O)n(C)c3c-2c(Cl)ccc13 [AZD5991] + Cn1cnc2c(F)c(Nc3ccc(Br)cc3Cl)c(C(=O)NOCCO)cc21 [Selumetinib] (first compound max 1 µM, 7x7, partner max 3 µM) ? Thanks!
-0.0375

Could you please provide reported Bliss excess for CC(=O)c1c(C)c2cnc(Nc3ccc(N4CCNCC4)cn3)nc2n(C2CCCC2)c1=O [Palbociclib] + CN(CC[C@H](CSC1=CC=CC=C1)NC2=C(C=C(C=C2)S(=O)(=O)NC(=O)C3=CC=C(C=C3)N4CCC(CC4)[C@H](C5=CC=CC=C5C6=CC=C(C=C6)Cl)O)S(=O)(=O)C(F)(F)F)CCO [AZD4320] (first compound max 10 µM, 7x7, partner max 1 µM) ? Thanks!
-0.0184

Could you please provide reported Bliss excess for Cc1c2c(nn1C)CSCc1cc(n(C)n1)CSc1cc(c3ccccc3c1)OCCCc1c(C(=O)O)n(C)c3c-2c(Cl)ccc13 [AZD5991] + C1CN(CCC1(C(=O)N[C@@H](CCO)C2=CC=C(C=C2)Cl)N)C3=NC=NC4=C3C=CN4 [Capivasertib] (first compound max 1 µM, 7x7, partner max 3 µM) ? Thanks!
-0.0002

Field: next compound
Could you please provide reported Bliss excess for COc1cccc(OCCCN)c1-c1cc(Nc2cnc(C#N)cn2)n[nH]1 [Prexasertib] + CN(C)CCCOc1ccc(-c2ccc3ncc4c(c3c2)n(C2CCOCC2)c(=O)n4C)cn1 [AZD0156] (first compound max 1 µM, 7x7, partner max 1 µM) ? Thanks!
-0.0183

Recorded values, source the supplement of paper PMC11061612.
